EXPERIMENT_DESCRIPTION: Critical wavelength (λC) from absorption spectra (Eq. 2)
Type: physicochemical
CONDITIONS: chemical UV filter 0.5% in sun protective solution
PROPERTY: Critical wavelength (λC) (nm)
Write the value in nm as a bare number.

In the examples that follow, each entry is paired with its recorded Critical wavelength (λC).
Which Critical wavelength (λC) value is on record for CCCCC(CC)COc1ccc(-c2nc(-c3ccc(OC)cc3)nc(-c3ccc(OCC(CC)CCCC)cc3O)n2)c(O)c1 (centres unmarked) ?
365

Which Critical wavelength (λC) value is on record for CCCCC(CC)COC(=O)C(C#N)=C(c1ccccc1)c1ccccc1 (centres unmarked) [octocrylene, Octocrylene] ?
342

Which Critical wavelength (λC) value is on record for CCCCC(CC)COC(=O)c1ccc(Nc2nc(Nc3ccc(C(=O)NC(C)(C)C)cc3)nc(Nc3ccc(C(=O)OCC(CC)CCCC)cc3)n2)cc1 (centres unmarked) [diethylhexyl butamido triazone, Diethylhexyl butamido triazone] ?
337

Which Critical wavelength (λC) value is on record for CCCCC(CC)COC(=O)c1ccc(Nc2nc(Nc3ccc(C(=O)OCC(CC)CCCC)cc3)nc(Nc3ccc(C(=O)OCC(CC)CCCC)cc3)n2)cc1 (centres unmarked) [ethylhexyl triazone, Ethylhexyl triazone] ?
341

With those in mind, consider the next molecule.
Which Critical wavelength (λC) value is on record for CCCCCCCCCCCCc1cc(C)cc(-n2nc3ccccc3n2)c1O [benzotriazolyl dodecyl p-cresol, Benzotriazolyl dodecyl p-cresol] ?
363
